test system: SEM cells; assay: cell viability relative to DMSO control; higher = less cytotoxic; conditions: HPLM + 10% dialyzed FBS; 48 h; 0.0632 µM
I'd appreciate it if you could supply cell viability values for the items below.
Answers are plain numbers, in %.

Determine its reported cell viability: CC(O)(C#Cc1ccc2c(c1)N(c1nc(N)ncc1Cl)CC2)c1nccs1 (stereo not drawn)
125

Determine its reported cell viability: COc1cc2nc(N3CCN(C(=O)C4CCCO4)CC3)nc(N)c2cc1OC (stereo not drawn)
109

Determine its reported cell viability: "CN[C@@H]1Cc2cccc3[nH]c(=O)n(c23)C1"
98.8

Answer for every listed entry: what is its cell viability? The entries follow.
1. NC(=O)c1cccc2cn(-c3ccc([C@@H]4CCCNC4)cc3)nc12
2. CCCCC(C=O)NC(=O)C(CC(C)C)NC(=O)OCc1ccccc1 (stereo not drawn)
3. C[C@]12CC[C@H]3[C@@H](CCC/4=C/C(=O)CC[C@]34C)[C@@H]1CC[C@@H]2O

129
98.5
118

Answer for every listed entry: what is its cell viability? The entries follow.
1. COc1cc2nc(-c3cc(F)ccc3O)nc(N[C@@H]3CNC[C@H]3C(C)(C)O)c2cc1OC
2. Cc1[nH]c(/C=C2\C(=O)Nc3ccccc32)c(C)c1CCC(=O)O

89.5
68.9

====

test system: P12-Ichikawa; test: cell viability relative to DMSO control; higher = less cytotoxic; details: RPMI 5 mM glucose + 10% dialyzed FBS; 48 h; 1.71 µM
endpoint name: cell viability (%)
One number for each entry, in %.

Determine its reported cell viability: CN1CCCC(CC1)N2\N=C(CC3=CC=C(Cl)C=C3)/C4=C(C=CC=C4)C2=O (stereo unspecified)
114

Determine its reported cell viability: "O=C(c1ccc(F)c(F)c1Nc1ccc(I)cc1F)N1CC(O)([C@@H]2CCCCN2)C1"
105

Determine its reported cell viability: "CO/C1=C/C(C)=C\[C@@H](C)[C@@H](O)[C@@H](C)C/C(C)=C\C=C/[C@H](OC)[C@@H]([C@@H](C)[C@@H](O)[C@H](C)[C@@]2(O)C[C@@H](O)[C@H](C)[C@@H](C(C)C)O2)OC1=O"
21.3

Determine its reported cell viability: "O=C(Nc1ncc(SCCN2CCCC2)s1)[C@]1(c2ccc([S+](=O)([O-])C3CC3)cc2)C[C@H]1C1CCCCC1"
109

Determine its reported cell viability: "CN1CCC[C@@H]1CCO[C@](C)(c1ccccc1)c1ccc(Cl)cc1"
102

Determine its reported cell viability: "C/C(O)=C(\C#N)C(=O)Nc1cc(Br)ccc1Br"
116

Answer for every listed entry: what is its cell viability? The entries follow.
1. CN1\C(=C(\O)C2=C(C=CC=C2)[S+]1([O-])=O)C(=O)NC3=CC=CC=N3
2. Nc1cccc2c1CN([C@H]1CCC(=O)NC1=O)C2=O
3. CC[C@]12\C=C/CN3CC[C@]4([C@@H](N(C)C5=CC(=C(C=C45)[C@]6(C[C@H]7C[C@H](CN(C7)CC8=C6[NH]C9=C8C=CC=C9)C(C)(F)F)C(=O)OC)OC)[C@](O)([C@@H]1OC(C)=O)C(=O)OC)[C@H]23
4. NC(=O)c1cccc2cn(-c3ccc([C@@H]4CCCNC4)cc3)nc12
5. NCCCCNCCCN

106
102
21.5
106
111

Answer for every listed entry: what is its cell viability? The entries follow.
1. COc1ccc(Nc2nccc(NCCO)n2)cc1
2. CCOC(=O)c1cncn1[C@H](C)c1ccccc1
3. COc1cc2c(Nc3ccc(Br)cc3F)ncnc2cc1OCC1CCN(C)CC1

1. 81.9
2. 121
3. 84.4

Answer for every listed entry: what is its cell viability? The entries follow.
1. O=C(O)CCn1c2c(c3ccccc31)C[C@H](N[S+](=O)([O-])c1ccc(F)cc1)CC2
2. Cc1cnc(C(=O)O)c[n+]1[O-]
3. COc1ncnc(N[S+](=O)([O-])c2ccc(N)cc2)c1OC
4. Nc1ncnc2ccccc12

108
108
53.8
92.3

Answer for every listed entry: what is its cell viability? The entries follow.
1. C=CC(=O)Nc1cccc(Nc2nc(NC3CCC(N(C)C)CC3)nc3c2ncn3C(C)C)c1 (stereo unspecified)
2. CC1(N2CCC(n3c([C@@H]4CCCNC4)nc4ccccc43)CC2)CCCCCCC1
3. OC(=O)C(CC/1=C/C(=O)NC2=CC=CC=C12)NC(=O)C3=CC=C(Cl)C=C3 (stereo unspecified)

1: 114; 2: 109; 3: 128

Answer for every listed entry: what is its cell viability? The entries follow.
1. CCC(=C/[C@H](C)C/C=C/C(C)=C/[C@@H](C)C(=O)[C@@H](C)[C@H](O)[C@@H](C)C/C(C)=C/C(=O)O)/C=C/[C@@H]1OC(=O)C=C[C@@H]1C
2. Cc1[nH]c(/C=C2\C(=O)Nc3ccccc32)c(C)c1CCC(=O)O
3. COC[C@H](c1ccc(C(F)(F)F)cc1)N1CCN(C2(C)CCN(C(=O)c3c(C)ncnc3C)CC2)C[C@H]1C.O=C(O)/C=C\C(=O)O
4. c1ccc(CNc2nc(N3CCOc4ccccc43)nc3c2CCCC3)cc1
5. CC(C)C[C@H](NC(=O)CNC(=O)c1cc(Cl)ccc1Cl)B(O)O
6. ClC1=CC\2=C(NC(=O)\C(=C2N[C@@H]3CN4CCC3CC4)C5=NC6=C([NH]5)C=CC=C6)C=C1
7. CN1\N=C(N)/C2=C[N]([C@@H]3O[C@H](CO[P](O)(O)=O)[C@@H](O)[C@H]3O)C4=C2C1=NC=N4

[91.1, 101, 110, 116, 5.26, 14, 60.4]

Answer for every listed entry: what is its cell viability? The entries follow.
1. CNC[C@H](O)c1cccc(O)c1
2. CCN(C(=O)C/1=C(O)/C2=C(C=CC=C2Cl)N(C)C1=O)C3=CC=CC=C3
3. O=C(O)/C=C/c1ccc(O)c(O)c1

96.3
46.1
103
